subject_of_test: CYP2C19 (Homo sapiens)
Construct: purchased Promega; host or cells: baculovirus-infected insect cells
Sequence (P33261 whole entry): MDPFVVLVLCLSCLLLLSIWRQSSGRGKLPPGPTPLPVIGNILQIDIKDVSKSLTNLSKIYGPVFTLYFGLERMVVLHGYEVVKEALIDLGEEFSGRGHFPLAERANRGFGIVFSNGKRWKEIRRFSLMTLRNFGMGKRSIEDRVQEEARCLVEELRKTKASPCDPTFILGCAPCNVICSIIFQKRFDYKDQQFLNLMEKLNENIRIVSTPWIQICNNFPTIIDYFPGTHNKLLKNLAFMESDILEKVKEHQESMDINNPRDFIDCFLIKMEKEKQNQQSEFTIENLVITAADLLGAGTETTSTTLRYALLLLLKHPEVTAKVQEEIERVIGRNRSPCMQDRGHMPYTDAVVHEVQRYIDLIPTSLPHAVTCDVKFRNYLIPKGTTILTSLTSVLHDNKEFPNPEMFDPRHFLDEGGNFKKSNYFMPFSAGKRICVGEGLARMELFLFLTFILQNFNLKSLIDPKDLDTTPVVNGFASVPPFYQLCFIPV
protocol_summary: Cytochrome P450 assay (P450-Glo), isoform 2C19
Type: in vitro ADME
test_parameters: read-out: CYP 2C19 IC50
measured_property: pIC50
Bear in mind: pIC50 is minus log10 of a mol/L concentration; give just that figure.

Consider Nc1nc2ccc(C(=O)NCCc3ccc(Cl)c(Cl)c3)cc2s1 . Its measured pIC50 is 5.07

Quick note, pIC50 for Nc1nc2ccc(C(=O)NCCc3ccc(Br)cc3)cc2s1 landed at 5.60

// recorded pIC50 for Nc1nc2ccccc2n1Cc1ccc(Cl)c(Cl)c1 [I, reference compound] : 6.52

Data point: Nc1nc2ccc(CN(Cc3ccc(Cl)c(Cl)c3)C3CC3)cc2s1 ; pIC50 = 5.92

Lab note: Nc1nc2ccc(C(=O)N(CCc3ccc(Cl)c(Cl)c3)C3CC3)cc2s1 gave pIC50 of 5.33
